Molecular target: T1, human MSLN-R3 protein (human, UniProt Q13421 487-598)
T1 construct: also called hMSLN-R3
T1 sequence (Q13421 495-606, form in doubt): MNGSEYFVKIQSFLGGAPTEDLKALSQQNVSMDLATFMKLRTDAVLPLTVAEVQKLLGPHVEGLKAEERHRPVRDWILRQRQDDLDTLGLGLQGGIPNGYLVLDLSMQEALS
Test: ELISA on coated antigen, antibody 0.001 nM
property label: OD450 (OD450)

# binder, output unit, recorded result
data = [
    ("F7.44.20-H9 (scFv, not shown: small tags and cut ends, also called S009-F7.44.20 humanized antibody VH2 + VL1) scFv: EVQLVQSGAEVKKPGASVKVSCKASGYTFTDYNMDWVRQAPGQGLEWMGDINPSTGGTIYNQKFNGRVTMTEDKSASTVYMELSSLRSEDTAVYYCARRRIGTGYFDVWGQGTTVTVSSGGGGSGGGGSGGGGSEIVLTQSPDFQSVTPKEKVTITCSASSSVISSYLSWYQQKPDQSPKLLIYRTSNLASGVPSRFSGSGSGTDFTLTINSLEAEDAATYYCHQWSSFPYTFGGGTKVEIK", "OD450", 0.04),
    ("Tab111 (scFv, not shown: small tags and cut ends, also called YP218 VL-(G4S)3-VH-his antibody; positive control) scFv: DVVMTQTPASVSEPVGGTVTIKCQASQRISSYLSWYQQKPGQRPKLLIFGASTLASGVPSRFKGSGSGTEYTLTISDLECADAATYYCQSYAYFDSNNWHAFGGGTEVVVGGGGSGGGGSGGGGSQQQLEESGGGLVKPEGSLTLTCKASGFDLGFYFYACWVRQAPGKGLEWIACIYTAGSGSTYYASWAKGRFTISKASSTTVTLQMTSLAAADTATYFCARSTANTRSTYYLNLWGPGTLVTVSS", "OD450", 0.05),
    ("F7.44.20 (scFv, not shown: small tags and cut ends, also called S009-F7.44.20 (parental variable regions, in the humanized-antibody ELISA)) scFv: EVQLQQSGPELVKPGASVKIPCKASGYTFTDYNMDWVKQSHGKSLEWIGDINPSTGGTIYNQKFNGKATLTEDKSASTVYMEFRSLTSDDTAVYYCARRRIGTGYFDVWGTGTTVTVSSGGGGSGGGGSGGGGSQIVLTQSPALMSASPGEKVTLTCSASSSVISSYLSWYQQKPGSSPKLLIYRTSNLASGVPARFSGSGSGTSYSLTISSMEAEDAASYFCHQWSSFPYTFGGGTKLEIK", "OD450", 0.04),
    ("F7.44.20-H14 (scFv, not shown: small tags and cut ends, also called S009-F7.44.20 humanized antibody VH2a + VL2) scFv: EVQLVQSGAEVKKPGASVKVSCKASGYTFTDYNMDWVRQAPGQGLEWMGDINPSTGGTIYNQKFSGRVTMTEDKSASTVYMELSSLRSEDTAVYYCARRRIGTGYFDVWGQGTTVTVSSGGGGSGGGGSGGGGSEIVLTQSPDFQSVTPKEKVTITCSASSSVISSYLSWYQQKPDQSPKLLIYRTSNLASGVPSRFSGSGSGTDYTLTINSLEAEDAATYYCHQWSSFPYTFGGGTKVEIK", "OD450", 0.04),
    ("F7.44.20-H10 (scFv, not shown: small tags and cut ends, also called S009-F7.44.20 humanized antibody VH2 + VL2) scFv: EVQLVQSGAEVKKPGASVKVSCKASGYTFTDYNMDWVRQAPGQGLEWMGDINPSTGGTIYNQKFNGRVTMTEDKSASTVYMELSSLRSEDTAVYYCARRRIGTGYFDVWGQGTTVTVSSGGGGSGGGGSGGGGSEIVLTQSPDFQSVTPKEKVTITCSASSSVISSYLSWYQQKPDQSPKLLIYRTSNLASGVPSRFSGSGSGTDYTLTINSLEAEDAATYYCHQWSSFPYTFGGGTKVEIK", "OD450", 0.04),
]

Recorded values, source patent US20250250357A1.
